MIC: recorded values
System: Escherichia coli
Assay: In vitro minimum inhibitory concentration against Escherichia coli UBMS 90-4 (tet M ribosomal protection).
Format: functional

// worked examples, MIC included
CN(C)[C@@H]1C(=O)C(C(N)=O)=C(O)[C@@]2(O)C(=O)C3=C(O)c4c(O)c(N)cc(I)c4CC3CC12.O=S(=O)(O)O (some centres undefined): > 32 µg/mL
CN(C)[C@@H]1C(O)=C(C(N)=O)C(=O)[C@@]2(O)C(O)=C3C(=O)c4c(O)cccc4[C@@](C)(O)[C@H]3C[C@@H]12: > 32 µg/mL
CC(=O)Nc1cc(I)c2c(c1O)C(O)=C1C(=O)[C@]3(O)C(O)=C(C(N)=O)C(=O)[C@@H](N(C)C)C3CC1C2.O=S(=O)(O)O (some centres undefined): > 128 µg/mL

Turning to the following compound.
For the compound CN(C)c1ccc(O)c2c1C[C@H]1C[C@H]3[C@H](N(C)C)C(O)=C(C(N)=O)C(=O)[C@@]3(O)C(O)=C1C2=O , what MIC is on record?
> 32 µg/mL
